This collection of values is drawn from PubChem BioAssay AID2060617.

test system: 485368-065-R4-J2-PDC spheroids with HUVEC/MSC, viability; experiment: Anticancer human tumor 485368-065-R4-J2-PDC patient-derived pancreatic carcinoma cell line growth inhibition [CLK]; details: second compound 0.1 µM; first compound 10 µM; hits give low values;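 note: spheroids exposed to compounds for seven days; 100% = DMSO vehicle control wells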
Readout name: viability, T/C (%)
Give the value in % but do not write % after it.

query: If you can, please state the reported viability, T/C value of CC1(C)CCC(CN2CCN(c3ccc(C(=O)NS(=O)(=O)c4ccc(NCC5CCOCC5)c([N+](=O)[O-])c4)c(Oc4cnc5[nH]ccc5c4)c3)CC2)=C(c2ccc(Cl)cc2)C1 + CNC(=O)c1ccc(Nc2nc(OC3CCCC3)c3c(-c4ccc5nc(C)oc5c4)c[nH]c3n2)c(OC)c1 .
result: 30.8

query: What value of measured viability, T/C is listed for COc1ccc([C@@H](O)c2cc(-c3ncnc4cc(N5CCOCC5)ccc34)c(F)cc2Cl)nn1 + CN1CCN(c2cc(C(=O)Nc3cc4cc(-c5cnn(C)c5)ccc4cn3)ccn2)CC1 ?
result: 74.6
